- Tested On: HLA-DQ DQA1*0301/B*0302 (DQ8) (Homo sapiens, UniProt P01909+P01920, A209T/A45G/C70Q/D89A/DUP78-78/E183D/E77G/F237L/G63E/H199R/I129T/K197E/L178F/L74F/L98V/Q57E/Q76R/S185I/S97I/T217I/T49S/V73L/Y58L)
- Assay Method Text: biochemical
No end group written: not given here.
Metric: IC50 (µM)
State the answer as a number, implicitly in µM.

Reference set, count: 3
• IDVWLGGLAENFLPY = 0.138
• LQLHVDKAVSGLRSL = 7.84
• GSHLVEALYLVCGER = 2.49

INPUT: Fill in: IC50 of GLALLSEAVLRGQAL [GLALLSEAVLRGQAL] is ___
OUTPUT: 17

INPUT: Fill in: IC50 of ISLLLIQSWLEPVQF is ___
OUTPUT: 0.562

INPUT: Fill in: IC50 of WKRMEVGQQAVEVWQ is ___
OUTPUT: 12.1

INPUT: Fill in: IC50 of QHLCGSHLVEALYLV is ___
OUTPUT: 8.41
